Listed here: items and their measured pKd.
test-target: T1, human TSLP recombinant protein (human, UniProt Q969D9 29-159, biotinylated in the blocking and cell-binding assays (sites not given))
T1 construct: also called biotinylated human TSLP protein
method-summary: SPR BIAcore T200, antibody captured on Protein A, human TSLP injected
Reminder that pKd means the negative base-10 logarithm of the concentration expressed in mol/L.

// known answers, use as guide
Ab24 (antibody, V domains shown, Humanized; also called h39G5VHv5/h71G4VKv1; h39G5VHv5/h71G4VKv1 hIgG1) VH: QVQLVQSGAEVKKPGSSVKVSCKASGYTFTDYWMHWVRQAPGQGLEWMGIIDPSDSDTSLNQKFQGRVTLTVDTSTSTAYMELSSLRSEDTAVYYCARSLDGYYDYWGQGTLVTVSS VL: DIQMTQSPSSLSASVGDRVTITCRTSENIYSYLAWYQQKPGKAPKLLIYFAKTLTDGVPSRFSGSGSGTDFTLTISSLQPEDFATYYCQHHYGTPWTFGQGTKVEIK; 13.63
Ab22 (antibody, V domains shown, Humanized; also called h39G5VHv1/h71G4VKv1; h39G5VHv1/h7IG4VKv1 hIgG1) VH: QVQLVQSGAEVKKPGSSVKVSCKASGYSFISYWIHWVRQAPGQGLEWMGIIDPSDSDTSLNQKFQGRVTLTVDKSSTTAYMELSSLRSEDTAVYYCARSLDGYYDYWGQGTLVTVSS VL: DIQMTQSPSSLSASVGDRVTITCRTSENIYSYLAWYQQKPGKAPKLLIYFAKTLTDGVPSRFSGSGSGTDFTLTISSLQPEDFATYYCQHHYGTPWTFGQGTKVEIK; 13.19
Ab26 (antibody, V domains shown, Humanized; also called h39G5VHv10/h71G4VKv1; h39G5VHv10/h71G4VKv1 hIgG1) VH: QVQLVQSGAEVKKPGSSVKVSCKASGYTFTDYWMHWVRQAPGQGLEWMGIIDPSDSDTSLNQKFQGRVTITADTSTSTAYMELSSLRSEDTAVYYCARSLDGYYDYWGQGTLVTVSS VL: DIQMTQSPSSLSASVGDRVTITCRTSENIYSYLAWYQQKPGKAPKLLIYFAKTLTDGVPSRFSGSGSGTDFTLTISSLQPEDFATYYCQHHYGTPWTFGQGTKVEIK; 11.69

Turning now to a further record.
Lookup: // Input: Ab23 (antibody, V domains shown, Humanized; also called h39G5VHv2/h71G4VKv1; h39G5VHv2/h71G4VKv1 hIgG1) VH: QVQLVQSGAEVKKPGSSVKVSCKASGYSFISYWIHWVRQAPGQGLEWMGIIDPSDSDTSLNQKFQGRVTITADESTSTAYMELSSLRSEDTAVYYCARSLDGYYDYWGQGTLVTVSS VL: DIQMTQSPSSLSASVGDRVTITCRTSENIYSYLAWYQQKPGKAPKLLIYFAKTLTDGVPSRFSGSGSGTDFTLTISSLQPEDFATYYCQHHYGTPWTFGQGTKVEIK . Output its pKd only.
Found: 13.09
